target: human IL-1β (human, UniProt P01584 117-269); assay: cell-based or functional assay
measurement_name: MRC5 IL-1β (nM)
Field: numeric (nM). Do not append units.

Query string: Given the binder ABT2-65-166/ABT1-95-A6 hu IgG1/K wt (bispecific antibody, V domains shown, hu IgG1/K wt; also called 1-95-A6 / 2-65-166) VH: EVQLLESGGGLVQPGGSLRLSCAASGFTFEDYQMGWVRQAPGKGLEWVSSISAMGGRTYYADSVKGRFTISRDNSKNTLYLQMNSLRAEDTAVYYCAQNLVRLGRSRWMFDYWGQGTLVTVSS VL: DIQMTQSPSSLSASVGDRVTITCRASKPGVRNMRWYQQKPGKAPKLLIYAKSYLEPGVPSRFSGSGSGTDFTLTISSLQPEDFATYHCKQGYRWPVQFGQGTKVEIKR , what is its reported MRC5 IL-1β?
Result string: 0.207

Query string: Given the binder IgG pairing ABT1-95-A2 with ABT2-65-166 (bispecific antibody, V domains shown, IgG; also called 1-95-A2 / 2-65-166) VH: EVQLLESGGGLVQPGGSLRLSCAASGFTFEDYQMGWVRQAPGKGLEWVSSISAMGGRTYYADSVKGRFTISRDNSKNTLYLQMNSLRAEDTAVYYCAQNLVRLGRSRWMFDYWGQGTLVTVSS VL: DIQMTQSPSSLSASVGDRVTITCRILQPPGRNLRWYQQKPGKAPKLLIYSKSFLEPGVPSRFSGSGSGTDFTLTISSLQPEDFATYHCQQGYRWPVTFGQGTKVEIKR , what is its reported MRC5 IL-1β?
Result string: 0.121

Query string: Given the binder IgG pairing ABT1-122-750X with ABT2-65-17 (bispecific antibody, V domains shown) VH: EVQLLESGGGLVQPGGSLRLSCVASGFTFEDYQMGWVRQAPGKGLEWVSSISAMGNRTYYADSVKGRFTISRDDSKNTLYLQMNSLRAEDTAVYYCAQNLVRLGRSRWMFDYWGQGTLVTVSS VL: DIQMTQSPSSLSASVGDRVAITCSASQHIWTEISWYQQKPGKAPKLLIYGSASRQKGVPSRFSGSGSGTDFTLTISSLQPEDFATYYCKQFAYFPNTFGQGTKVEIKR , what is its reported MRC5 IL-1β?
Result string: 1

Query string: Given the binder ABT2-108-538x/ABT1-122-750x hu IgG1/K wt (bispecific antibody, V domains shown) VH: EVQLLESGGGLVQPGGSLRLSCAASGFTFADEGMMWVRQAPGKGLEWVSRITYSGKNTYYADSVKGRFTISRDNSKNTLYLQMNSLRAEDTAVYYCAKYTGRILGHHLFDYWGQGTLVTVSS VL: DIQMTQSPSSLSASVGDRVAITCSASQHIWTEISWYQQKPGKAPKLLIYGSASRQKGVPSRFSGSGSGTDFTLTISSLQPEDFATYYCKQFAYFPNTFGQGTKVEIKR , what is its reported MRC5 IL-1β?
Result string: 0.0094

Query string: Given the binder ABT2-108-538x/ABT1-122-511 hu IgG1/K wt (bispecific antibody, V domains shown) VH: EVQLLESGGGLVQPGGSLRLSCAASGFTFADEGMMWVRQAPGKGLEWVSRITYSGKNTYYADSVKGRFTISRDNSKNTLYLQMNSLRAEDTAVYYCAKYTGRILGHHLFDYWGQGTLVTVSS VL: DIQMTQSPSSLSASVGDRVTITCRASQPIWTELNWYQQKPGKAPKLLIYGSSSLQRGVPSRFSGSGSGTDFTLTISSLQPEDFATYYCKQFAYFPATFGQGTKVEIKR , what is its reported MRC5 IL-1β?
Result string: 0.009
